- TARGET UNDER TEST: Cytochrome P450 3A4 (Homo sapiens)
- EXPERIMENTAL DETAILS: qHTS Assay for Inhibitors and Substrates of Cytochrome P450 3A4 (AID 884); further: nearly all actives have a fitted effect of over 50% in size
- RUN CONDITIONS: recombinant CYP3A4, Luciferin-PPXE luminescence; series mostly up to 57.1 µM
Results filed as inconclusive are left out. Active and inactive are the calls of the source. The call rests on the fitted dose curve; in most records, active means well fitted inhibition curve with a large enough effect; inconclusive means small, poorly fitted or top-dose-only effect; inactive means no such curve, though single readings can be large or run the other way.
Hi there, use one of these labels in your reply, thanks! yes (1) (active), no (0) (inactive)

Recorded results for 5 compounds are shown here.
NC(=O)c1ccc([N+](=O)[O-])cc1 no (0)
Cc1ccccc1N1CCN(S(=O)(=O)C[C@@]23CC[C@H](C[C@H]2NC(=O)[C@@H](N)CCS(C)(=O)=O)C3(C)C)CC1 yes (1)
O=c1oc2cc(N=Cc3ccc4c(c3)OCO4)ccc2c2ccccc12 yes (1)
CC(C)Cn1cnc2c(SCc3ccc(Cl)cc3Cl)nc(N)nc21 yes (1)
Cc1cc(O)c(C(C)C)cc1C1(c2cc(C(C)C)c(O)cc2C)OC(=O)c2ccccc21 yes (1)

[in] Please let me know the test result on file for "N=C(N)S[C@H]1c2ccccc2-c2cc([N+](=O)[O-])ccc21" .
[out] yes (1)

[in] Please indicate how the test categorized "c1c[nH]cn1" .
[out] no (0)

[in] Per the assay record, what outcome was assigned to "C(=N/Nc1nnc2c(n1)[nH]c1ccccc12)/c1cccnc1" ?
[out] yes (1)

[in] // return assay outcome for "Cc1c2cnccc2c(C)c2c1c1ccccc1n2CCOC(=O)c1ccccc1"
[out] yes (1)

[in] For "C/C(=N/Nc1ccc2ccccc2n1)c1ccccc1O" , what call appears in the results of this test?
[out] yes (1)

[in] Test call, this compound: "Nc1cc(C(=O)O)c(O)c(S(=O)(=O)O)c1"
[out] no (0)

[in] Any idea what this test logged for "O=C(Nc1ccccc1)N1CCC2(CC1)CCN(C(=O)c1ccco1)CC2" ?
[out] no (0)

[in] Hey, what did the test say about "Nc1ccc2c(c1)C(=O)c1ccccc1C2=O" ?
[out] yes (1)

[in] For "CC(C)S" , which call appears in the assay record?
[out] no (0)

====

- EXPERIMENTAL DETAILS: MultiTox-Fluor Cytotoxicity Assay - LYMP1-003 - Live Cells (AID 962);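 further: cells exposed to compound for 16 hours at 37 °C; 0% = DMSO only and full loss = 92 µM tetraoctylammonium bromide; cytotoxic hits lower the live-cell protease signal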
- RUN CONDITIONS: LYMP1-003 lymphoblastoid cells, MultiTox-Fluor live-cell protease fluorescence; series mostly up to 92.2 µM
Calls of active or inactive are those of the source. Calls come from the whole dose curve; as a rule, active = well fitted cell-killing curve with a large enough effect; inconclusive = small, poorly fitted or top-dose-only effect; inactive = flat fitted curve, though single readings scatter.
Select the matching outcome among True = active, False = inactive

Illustrative cases are given below, each with its answer.
COMPOUND	CAT
Oc1ccc(O)c2c(O)cccc12	False
C/C(Cl)=C/CCl	False
CC(C)COC(=O)COc1cc(Cl)c(Cl)cc1Cl	False

[in] Record lookup: outcome of this test for "Oc1ccc2c(c1)OCO2" ?
[out] False

[in] Any idea what this test logged for "Nc1ccc(-c2ccc(N)c(O)c2)cc1O" ?
[out] False

[in] Record lookup: outcome of this test for C=CC1CO1 (configuration not stated) ?
[out] False

[in] Short answer needed: outcome of this test for "Cc1ccc(S(N)(=O)=O)cc1" ?
[out] False

[in] Which result was noted for this compound in the test: "OC1CCCCC1"
[out] False

[in] Tell me the recorded outcome of this test for "O=C1c2ccccc2C(=O)C1(O)O" .
[out] False
